test system: NCI-H522 lung; test: NCI-60 one-dose screen, 48 h; conditions: 10 µM unless noted
The panel holds about 83,000 compounds, 20% with a hit somewhere; the sample as a whole holds those more often. The source made the active and inactive calls. The calls were made as follows: active = growth percent below 10; inactive = the rest.
Thanks in advance; please answer with one of these: YES = active, NO = inactive

COc1cc(F)c(-c2nc3c(C)cccc3n2Cc2c(F)cccc2F)c(F)c1 = NO

q: Please state the recorded outcome for this compound: COc1cc(C2=NN(C(C)=O)C(c3cccc(Nc4ccnc5cc(C(F)(F)F)ccc45)c3)C2)cc(OC)c1OC (stereo not drawn)
a: NO

q: Please state the recorded outcome for this compound: C[C@H]1[C@H](C)CC[C@]2(C(=O)OCCOCCOCC[P+](c3ccccc3)(c3ccccc3)c3ccccc3)CC[C@]3(C)C(=CC[C@@H]4[C@@]5(C)CC[C@H](OC(=O)C(Cl)Cl)C(C)(C)[C@@H]5CC[C@]43C)[C@H]12
a: YES

q: Please state the recorded outcome for this compound: Cc1nnc(/N=C2\NC(=O)/C(=C/c3ccc(N(C)C)cc3)S2)s1
a: YES

q: Please state the recorded outcome for this compound: Nc1ccc2c(c1)C(=O)C(=O)c1c-2nc2ccccn12
a: NO
